Lab note: MIC readings collected with A. calcoaceticus PCI-3 for the following compounds.
Where a name gives a salt, the structure may show the parent alone.
Field format: number, assumed µg/mL, no unit text.

compound: O=C(Cc1cccs1)N[C@@H]1C(=O)N2C(C(=O)O)=C(COC(=O)N3CCN(c4c(F)cc5c(=O)c(C(=O)O)cn(C6CC6)c5c4F)CC3)CS[C@H]12 [Formula Ia]
MIC (µg/mL): 0.25

compound: N#CCC(=O)N[C@@H]1C(=O)N2C(C(=O)O)=C(COC(=O)N[C@@H]3CCN(c4c(F)cc5c(=O)c(C(=O)O)cn(C6CC6)c5c4F)C3)CS[C@H]12 [Formula Ibb, monosodium salt]
MIC (µg/mL): 0.5

compound: N#CCC(=O)N[C@@H]1C(=O)N2C(C(=O)O)=C(COC(=O)N[C@H]3CCN(c4c(F)cc5c(=O)c(C(=O)O)cn(C6CC6)c5c4F)C3)CS[C@H]12 [Formula Iba, monosodium salt]
MIC (µg/mL): 0.0625

Query: Under A. calcoaceticus PCI-3, report MIC for N#CCC(=O)N[C@@H]1C(=O)N2C(C(=O)O)=C(COC(=O)NC3CCN(c4c(F)cc5c(=O)c(C(=O)O)cn(C6CC6)c5c4F)C3)CS[C@H]12 (stereo partly shown) [Formula Ib, monosodium salt]
Response: 0.25

###

test system: Ps. aeruginosa ATCC 27853; test: MIC, Agar (Mueller Hinton) Dilution Method; format: cell-based; details: Pseudomonas aeruginosa, ATCC27853, Gram Negative
Counter-ions that a name gives are not always drawn.
reported.metric: MIC (µg/mL)
Express it in µg/mL; write the number only.

molecule: N#CCC(=O)N[C@@H]1C(=O)N2C(C(=O)O)=C(COC(=O)N[C@H]3CCN(c4c(F)cc5c(=O)c(C(=O)O)cn(C6CC6)c5c4F)C3)CS[C@H]12 [Formula Iba, monosodium salt]
reported.metric: MIC
measured.number: 1
//
molecule: N#CCC(=O)N[C@@H]1C(=O)N2C(C(=O)O)=C(COC(=O)NC3CCN(c4c(F)cc5c(=O)c(C(=O)O)cn(C6CC6)c5c4F)C3)CS[C@H]12 (stereo partly shown) [Formula Ib, monosodium salt]
reported.metric: MIC
measured.number: 1
//
molecule: O=C(Cc1cccs1)N[C@@H]1C(=O)N2C(C(=O)O)=C(COC(=O)N3CCN(c4c(F)cc5c(=O)c(C(=O)O)cn(C6CC6)c5c4F)CC3)CS[C@H]12 [Formula Ia]
reported.metric: MIC
measured.number: 1

Query: State its MIC: N#CCC(=O)N[C@@H]1C(=O)N2C(C(=O)O)=C(COC(=O)N[C@@H]3CCN(c4c(F)cc5c(=O)c(C(=O)O)cn(C6CC6)c5c4F)C3)CS[C@H]12 [Formula Ibb, monosodium salt]
Response: 2

###

Where a name gives a salt, the structure may show the parent alone.
Dear all, this message contains MIC results, target or system Prot. vulgaris 100.
// units = µg/mL; emit number, no label

Guide cases for MIC, answers given:
compound: N#CCC(=O)N[C@@H]1C(=O)N2C(C(=O)O)=C(COC(=O)NC3CCN(c4c(F)cc5c(=O)c(C(=O)O)cn(C6CC6)c5c4F)C3)CS[C@H]12 (stereo partly shown) [Formula Ib, monosodium salt]
unit.abbrev: µg/mL
MIC: 0.25

compound: O=C(Cc1cccs1)N[C@@H]1C(=O)N2C(C(=O)O)=C(COC(=O)N3CCN(c4c(F)cc5c(=O)c(C(=O)O)cn(C6CC6)c5c4F)CC3)CS[C@H]12
unit.abbrev: µg/mL
MIC: 0.125

compound: N#CCC(=O)N[C@@H]1C(=O)N2C(C(=O)O)=C(COC(=O)N[C@H]3CCN(c4c(F)cc5c(=O)c(C(=O)O)cn(C6CC6)c5c4F)C3)CS[C@H]12 [Formula Iba, monosodium salt]
unit.abbrev: µg/mL
MIC: 0.0625

// moving on: another record for MIC
Query: Report MIC from Prot. vulgaris 100 testing of N#CCC(=O)N[C@@H]1C(=O)N2C(C(=O)O)=C(COC(=O)N[C@@H]3CCN(c4c(F)cc5c(=O)c(C(=O)O)cn(C6CC6)c5c4F)C3)CS[C@H]12 [Formula Ibb, monosodium salt]
Response: 0.0625
